Experiment: clinical
Settings: human, in vivo

{"Molecule": "CCN1CCCC1CNC(=O)c1cc(S(=O)(=O)CC)c(N)cc1OC (stereo not shown) [amisulpride]", "Endpoint Unit": "ng/mL", "concentration at 6 hr": 163}

----------
Experiment: clinical
Details: human, in vivo
Recorded Endpoint: concentration at 8 hr

{"Compound": "CCN1CCCC1CNC(=O)c1cc(S(=O)(=O)CC)c(N)cc1OC (stereo not shown) [amisulpride]", "Result": "96.8 ng/mL"}

----------
Assay: clinical
Settings: human, in vivo

{"Compound": "CCN1CCCC1CNC(=O)c1cc(S(=O)(=O)CC)c(N)cc1OC (stereo not shown) [amisulpride]", "Endpoint Unit": "ng/mL", "concentration at 12 hr": 55.6}

----------
Test: clinical
Settings: human, in vivo
Recorded Endpoint: concentration at 36 hr

{"Compound": "CCN1CCCC1CNC(=O)c1cc(S(=O)(=O)CC)c(N)cc1OC (stereo not shown) [amisulpride]", "Recorded Endpoint": "concentration at 36 hr", "Result": "9.84 ng/mL"}

----------
Assay: clinical
Conditions: human, in vivo

{"Molecule": "CCN1CCCC1CNC(=O)c1cc(S(=O)(=O)CC)c(N)cc1OC (stereo not shown) [amisulpride]", "concentration at 0.5 hr, ng/mL": 346}

----------
Test: clinical
Details: human, in vivo
Recorded Endpoint: concentration at 1 hr (ng/mL)

{"Compound": "CCN1CCCC1CNC(=O)c1cc(S(=O)(=O)CC)c(N)cc1OC (stereo not shown) [amisulpride]", "Measured Number": 294}

----------
Experiment: clinical
Settings: human, in vivo

{"Compound": "CCN1CCCC1CNC(=O)c1cc(S(=O)(=O)CC)c(N)cc1OC (stereo not shown) [amisulpride]", "concentration at 72 hr [ng/mL]": 1.48}
